Biological target: Human D1 (Homo sapiens (Human), UniProt P21728)
Sequence (P21728 whole entry): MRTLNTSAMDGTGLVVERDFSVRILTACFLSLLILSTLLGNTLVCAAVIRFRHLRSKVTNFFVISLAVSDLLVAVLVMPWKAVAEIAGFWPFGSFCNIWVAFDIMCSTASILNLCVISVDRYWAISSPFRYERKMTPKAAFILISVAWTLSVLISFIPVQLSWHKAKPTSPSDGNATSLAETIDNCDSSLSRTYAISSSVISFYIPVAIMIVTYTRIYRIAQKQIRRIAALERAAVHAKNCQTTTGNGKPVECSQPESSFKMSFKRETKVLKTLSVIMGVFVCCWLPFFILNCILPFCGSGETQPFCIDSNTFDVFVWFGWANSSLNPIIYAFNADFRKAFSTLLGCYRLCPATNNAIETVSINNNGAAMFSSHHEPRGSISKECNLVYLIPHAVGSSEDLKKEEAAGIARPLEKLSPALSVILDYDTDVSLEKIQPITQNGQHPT
Assay: Human D1 Receptor Binding Assay ([3H]-SCH23390 competition)
Details: read-out: Human D1 Receptor Binding, Ki (μM); Geometric mean of 2-3 determinations; over-expressing LTK human cell lines, 0.5 nM [3H]-SCH23390, 30 min at 37° C.; footnote b = single determination, c = geometric mean of ≧4 determinations
Threshold check on Ki: strictly below 0.03 µM is true (1); on or above 0.03 µM is false (0).

Some entries whose results are on file:
[[record]]
compound = "Cc1n[nH]c(=O)c(C)c1-c1ccc(Oc2nccc3[nH]nc(C)c23)cc1"
label = "true (1)"

[[record]]
compound = "Cc1cc(Oc2nccc3[nH]ccc23)ccc1-c1c(C)n[nH]c(=O)c1C (single isomer, unassigned; ent-1) [Example 9]"
label = "true (1)"


[in] Is Ki of Cc1ncnc(C)c1-c1ccc(Oc2nccc3[nH]ccc23)c(F)c1F strictly below 0.03 µM?
[out] false (0)

[in] Does this compound meet the criterion Ki < 0.03 µM? Cc1cc(Oc2nccc3[nH]ccc23)ccc1-c1c(C)ncc2nccn12
[out] true (1)

[in] Does the reported Ki of the following compound sit strictly below 0.03 µM? Cc1cc(Oc2nccc3[nH]ccc23)ccc1-c1c(C)cnn1C
[out] false (0)

###

Molecular target: Human D1 (Homo sapiens (Human), UniProt P21728)
Assay: D1 cAMP HTRF Assay
Type: cell-based
Settings: HEK293T/hD1#1 stable cell line, 30 min at room temperature; footnote a = geometric mean of ≧7 determinations
Structures can show the parent of a compound that is named as a salt.
reported_property: pEC50
Just so you know, pEC50 here is -log10 of the concentration in molar units; reply with that number alone.

[[record]]
molecule = "Cc1n[nH]c(=O)c(C)c1-c1ccc(Oc2nccc3[nH]ncc23)cc1"
reported_property = "pEC50"
val = 6.90

[[record]]
molecule = "Cc1ncc2nccn2c1-c1ccc(Oc2nccc3[nH]ccc23)cc1"
reported_property = "pEC50"
val = 6.33

[[record]]
molecule = "Cc1cc(Oc2nccc3n[nH]cc23)ccc1-c1c(C)n[nH]c(=O)c1C (single isomer, unassigned) [Example 3]"
reported_property = "pEC50"
val = 7.82

[[record]]
molecule = "Cc1c(-c2ccc(Oc3nccc4[nH]ncc34)cc2)n(C)c(=O)[nH]c1=O"
reported_property = "pEC50"
val = 7.55

[[record]]
molecule = "Cc1ncnc(C)c1-c1ccc(Oc2nccc3[nH]ncc23)cc1F"
reported_property = "pEC50"
val = 6.04


Item: Cc1cc(Oc2nccc3[nH]ccc23)ccc1-c1c(C)ncc(=O)n1C (single isomer, unassigned) [Example 27] | pEC50: 7.19

Noted for Cc1cc(Oc2nccc3[nH]ccc23)ccc1-c1c(C)ncc(=O)n1C (single isomer, unassigned) [Example 26] : its pEC50 reads 7.14

Notebook: Cc1cc(Oc2nccc3[nH]ccc23)ccc1-c1c(C)cnn1C , pEC50 read as 6.45

pEC50 for COc1cc(Oc2nccc3[nH]ncc23)ccc1-c1c(C)ncnc1C is 5.68

For record Cc1cc(Oc2nccc3[nH]ncc23)ccc1-c1cn[nH]c(=O)c1C [Example 42, trifluoroacetate salt] the listed pEC50 is 6.47

molecule Cc1cc(Oc2nccc3[nH]ccc23)ccc1-c1cncc2nccn12 , pEC50 observed: 6.38

Reported pEC50 of Cc1cc(Oc2nccc3[nH]ccc23)ccc1-c1c(C)ncc2nccn12 : 6.86

According to the records, this molecule Cc1ncnc(C)c1-c1cc(F)c(Oc2nccc3[nH]ccc23)cc1F displays pEC50 of 6.27

// sample Cc1ncnc(C)c1-c1ccc(Oc2nccc3[nH]ccc23)cc1C#N , its pEC50 was 6.61

pEC50 for Cc1ncnc(C#N)c1-c1ccc(Oc2nccc3[nH]ccc23)cc1F is 6.40

Reported pEC50 of Cc1cc(Oc2nccc3[nH]ccc23)ccc1-c1cc(=O)[nH]nc1C : 6.92

###

Target: Human D1 (Homo sapiens (Human), UniProt P21728)
Experiment: Human D1 Receptor Binding Assay ([3H]-SCH23390 competition)
Settings: read-out: Human D1 Receptor Binding, Ki (μM); Geometric mean of 2-3 determinations; over-expressing LTK human cell lines, 0.5 nM [3H]-SCH23390, 30 min at 37° C.; footnote b = single determination, c = geometric mean of ≧4 determinations
Counter-ions that a name gives are not always drawn.
Below: a set of entries, each annotated with reported Ki.
Give your result in µM as a bare value.

Recorded Ki, per entry:
[[record]]
molecule = "Cc1ncnc(C)c1-c1cc(F)c(Oc2nccc3[nH]ccc23)cc1F [Example 22]"
result_unit = "µM"
val = 0.0548

[[record]]
molecule = "Cc1cc(Oc2nccc3[nH]ccc23)ccc1-c1c(C)ncc(=O)n1C (single isomer, unassigned) [Example 26]"
result_unit = "µM"
val = 0.00456

[[record]]
molecule = "Cc1ncc2nccn2c1-c1ccc(Oc2nccc3[nH]ccc23)cc1F [Example 18]"
result_unit = "µM"
val = 0.0294

[[record]]
molecule = "Cc1ncnc(C)c1-c1ccc(Oc2nccc3[nH]ncc23)cc1Cl [Example 37]"
result_unit = "µM"
val = 0.0523

[[record]]
molecule = "Cc1ncnc(C)c1-c1ccc(Oc2nccc3[nH]ncc23)cc1F [Example 32]"
result_unit = "µM"
val = 0.0723

[[record]]
molecule = "Cc1c(-c2ccc(Oc3nccc4[nH]ncc34)cc2)n(C)c(=O)[nH]c1=O [Example 43]"
result_unit = "µM"
val = 0.0175

[[record]]
molecule = "Cc1cc(Oc2nccc3n[nH]cc23)ccc1-c1c(C)c(=O)[nH]c(=O)n1C (single isomer, unassigned) [Example 8]"
result_unit = "µM"
val = 0.00183

[[record]]
molecule = "Cc1cc(Oc2nccc3n[nH]cc23)ccc1-c1c(C)n[nH]c(=O)c1C (single isomer, unassigned) [Example 3]"
result_unit = "µM"
val = 0.00976

[[record]]
molecule = "Cc1cc(Oc2nccc3[nH]cc(C#N)c23)ccc1-c1c(C)ncnc1C [Example 44]"
result_unit = "µM"
val = 0.0046

[[record]]
molecule = "Cc1cc(Oc2nccc3n[nH]cc23)ccc1-c1c(C)n[nH]c(=O)c1C (single isomer, unassigned) [Example 4]"
result_unit = "µM"
val = 0.0104


Recorded Ki (molecule Cc1ncnc(C#N)c1-c1ccc(Oc2nccc3[nH]ccc23)cc1F [Example 16] ): 0.0283

Ki reading for Cc1ncnc(C)c1-c1ccc(Oc2nccc3[nH]ncc23)cc1 [Example 38] : 0.129

Lab book: Ki of Cc1cc2[nH]ncc2c(Oc2ccc(-c3c(C)n[nH]c(=O)c3C)cc2)n1 [Example 46] noted as 0.0247

Ki for Cc1cc(Oc2nccc3[nH]ccc23)ccc1-c1cncc2nccn12 [Example 15] is 0.0975

// Ki lookup, molecule = Cc1ncnc(C)c1-c1ccc(Oc2nccc3[nH]ccc23)cc1C#N [Example 21] , result: 0.102

For this molecule ( Cc1cc(Oc2nccc3[nH]ncc23)ccc1-c1cn[nH]c(=O)c1C [Example 42, trifluoroacetate salt] ), measured Ki is 0.123

Memo: Cc1cc(Oc2nccc3[nH]ccc23)ccc1-c1c(C)ncnc1C#N [Example 17] , reported Ki: 0.0392

# Ki (molecule: Cc1cc(Oc2nccc3n[nH]cc23)ccc1-c1c(C)ncc(=O)n1C (single isomer, unassigned) [Example 40] ) is 0.0281

Entry Cc1cc(Oc2nccc3[nH]ccc23)ccc1-c1c(C)cnnc1C (single isomer, unassigned; ent-2) [Example 12] ; Ki = 0.0883

###

Molecular target: Human D1 (Homo sapiens (Human), UniProt P21728)
Assay: Human D1 Receptor Binding Assay ([3H]-SCH23390 competition)
Details: read-out: Human D1 Receptor Binding, Ki (μM); Geometric mean of 2-3 determinations; over-expressing LTK human cell lines, 0.5 nM [3H]-SCH23390, 30 min at 37° C.; footnote b = single determination, c = geometric mean of ≧4 determinations
Description: D1 binding assays were performed using over-expressing LTK human cell lines. […] These ligand and tissue concentrations were used in time course studies to determine linearity and equilibrium conditions for binding. […] Non-specific binding was determined by radioligand binding in the presence of a saturating concentration of (+)-Butaclamol (10 μM), a D1 antagonist. […] Ki values were calculated according to the Cheng-Prusoff equation: […]
reported_property: Ki
Output should be the measured figure followed by the unit it is expressed in.

Worked set:
[[record]]
compound = "Cc1cc(Oc2nccc3[nH]ncc23)ccc1-c1c(C)ncnc1C"
reported_property = "Ki"
val = "0.113 µM"

[[record]]
compound = "Cc1cc(Oc2nccc3[nH]ccc23)ccc1-c1cc(=O)[nH]nc1C"
reported_property = "Ki"
val = "0.0679 µM"

[[record]]
compound = "Cc1cc(Oc2nccc3n[nH]cc23)ccc1-c1c(C)ncc(=O)n1C (single isomer, unassigned) [Example 39]"
reported_property = "Ki"
val = "0.0418 µM"


Consider the record given below.
The recorded Ki for Cc1n[nH]c(=O)c(C)c1-c1ccc(Oc2nccc3[nH]ncc23)cc1 is 0.0409 µM
